study target: G1 APOL1 (Homo sapiens, UniProt O14791, I384M/S342G)
Construct: expressed in transfected cells
Sequence (O14791 28-398 S342G/I384M): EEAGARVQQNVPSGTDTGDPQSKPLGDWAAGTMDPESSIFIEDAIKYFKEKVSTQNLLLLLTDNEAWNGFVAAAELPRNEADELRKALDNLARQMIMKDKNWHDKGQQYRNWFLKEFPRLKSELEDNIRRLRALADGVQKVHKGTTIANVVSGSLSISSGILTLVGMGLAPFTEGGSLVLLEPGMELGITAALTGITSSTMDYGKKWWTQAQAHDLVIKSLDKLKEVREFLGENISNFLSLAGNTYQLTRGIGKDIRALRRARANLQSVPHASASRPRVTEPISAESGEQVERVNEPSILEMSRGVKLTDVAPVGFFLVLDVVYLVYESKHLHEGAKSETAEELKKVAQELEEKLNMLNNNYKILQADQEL
assay protocol: Acute APOL1 Thallium Assay with Inducible Stable Clones of HEK 293 Cells
Type: cell-based
condition description: HEK 293 inducible stable clones, G1 APOL1; read-out: Thallium Assay (IC50)
observed property: IC50

{"compound": "Cn1cc(CNC(=O)CCCc2c(-c3ccc(F)cc3)[nH]c3c(F)cc(F)cc23)nn1", "study target": "G1 APOL1 (Homo sapiens, UniProt O14791, I384M/S342G)", "observed property": "IC50", "result": "> 1000 nM"}
{"compound": "CC(C)(C)OC(=O)N[C@@H](CO)C(=O)NCCc1c(-c2ccc(F)cc2)[nH]c2c(F)cc(F)cc12", "study target": "G1 APOL1 (Homo sapiens, UniProt O14791, I384M/S342G)", "observed property": "IC50", "result": "> 1000 nM"}
{"compound": "NC1CCCN(C(=O)CCc2c(-c3ccc(F)cc3)[nH]c3ccc(F)cc23)C1 (centres unmarked)", "study target": "G1 APOL1 (Homo sapiens, UniProt O14791, I384M/S342G)", "observed property": "IC50", "result": "> 1000 nM"}
{"compound": "CC[C@H](CO)NC(=O)CCc1c(-c2ccc(F)cc2)[nH]c2ccc(F)cc12", "study target": "G1 APOL1 (Homo sapiens, UniProt O14791, I384M/S342G)", "observed property": "IC50", "result": "250 to 1000 nM"}
{"compound": "NC(=O)C(CO)NC(=O)CCc1c(-c2ccc(F)cc2)[nH]c2ccc(F)cc12 (centres unmarked)", "study target": "G1 APOL1 (Homo sapiens, UniProt O14791, I384M/S342G)", "observed property": "IC50", "result": "> 1000 nM"}
{"compound": "O=C(NCCc1c(-c2ccc(F)cc2)[nH]c2c(F)cc(F)cc12)NCC1(CO)CC1", "study target": "G1 APOL1 (Homo sapiens, UniProt O14791, I384M/S342G)", "observed property": "IC50", "result": "> 1000 nM"}
{"compound": "N#Cc1ccc(-c2[nH]c3c(F)cc(F)cc3c2/C=C/C(=O)N[C@H]2CCNC2=O)cc1", "study target": "G1 APOL1 (Homo sapiens, UniProt O14791, I384M/S342G)", "observed property": "IC50", "result": "> 1000 nM"}
{"compound": "O=C(CCc1c(-c2ccc(F)cc2)[nH]c2c(F)cc(F)cc12)NC1CC1(F)F (centres unmarked)", "study target": "G1 APOL1 (Homo sapiens, UniProt O14791, I384M/S342G)", "observed property": "IC50", "result": "> 1000 nM"}

*Q* Enter reported IC50 observed with G1 APOL1 (Homo sapiens, UniProt O14791, I384M/S342G) for CS(=O)(=O)CCNC(=O)NCCc1c(-c2ccc(F)cc2)[nH]c2c(F)cc(F)cc12
*A* > 1000 nM

*Q* Entry to check: O=C(NCCc1c(-c2ccc(F)cc2)[nH]c2c(F)cc(F)cc12)c1c[nH]nc1C(F)(F)F
*A* > 1000 nM

*Q* Entry to check: NC1CCN(C(=O)CCc2c(-c3ccc(F)cc3)[nH]c3ccc(F)cc23)C1 (centres unmarked)
*A* > 1000 nM

*Q* Entry to check: C[C@H](CO)NC(=O)CCc1c(-c2ccc(F)cc2)[nH]c2c(F)cc(Cl)cc12
*A* < 250 nM

*Q* Entry to check: O=C(NCCc1c(-c2ccc(F)cc2)[nH]c2c(F)cc(F)cc12)N[C@H]1CCNC1=O
*A* > 1000 nM

*Q* Entry to check: O=C(NCCO)NCCc1c(-c2ccc(F)cc2)[nH]c2c(F)cc(F)cc12
*A* > 1000 nM

*Q* Entry to check: CC(C)[C@@H](CO)NC(=O)NCCc1c(-c2ccc(F)cc2)[nH]c2c(F)cc(F)cc12
*A* > 1000 nM

*Q* Entry to check: C[C@@H](CO)NC(=O)N(C)CCc1c(-c2ccc(F)cc2)[nH]c2c(F)cc(F)cc12
*A* > 1000 nM

*Q* Entry to check: O=C(CCc1c(-c2ccc(F)cc2)[nH]c2c(F)cc(F)cc12)NC(CO)(CO)CO
*A* 250 to 1000 nM

*Q* Entry to check: CC(NC(=O)CCc1c(-c2ccc(F)cc2)[nH]c2c(F)cc(F)cc12)C(F)(F)F (racemic)
*A* 250 to 1000 nM

*Q* Entry to check: NC(=O)CNC(=O)CCCc1c(-c2ccc(F)cc2)[nH]c2c(F)cc(F)cc12
*A* > 1000 nM

*Q* Entry to check: CNC(=O)C(C)NC(=O)CCc1c(-c2ccc(F)cc2)[nH]c2c(F)cc(F)cc12 (racemic)
*A* 250 to 1000 nM
